Tested on: Huh-7 cell line
Test: CellTiter-Glo growth inhibition assay, Huh-7
Format: cell-based
Details: Homo sapiens; Huh-7, hepatocellular carcinoma, 72 h
Structures can show the parent of a compound that is named as a salt.
Measured Attribute: EC50 (nM)
Supply the numeric figure in nM, leaving out any unit text.

Query CC(C)(C)NC1CCN(c2cc(NCc3ccc(Cl)cc3)nc3ccccc23)CC1 [Compound 2-3, hydrochloride salt] yields EC50 of 1700

###

Tested on: MOLM-14 cell line
Experiment: CellTiter-Glo cell viability / growth inhibition assay, MOLM-14 (Example 5)
Format: cell-based
Conditions: Homo sapiens, MOLM-14; 10 μM, 72 h
Where a name gives a salt, the structure may show the parent alone.
The compounds listed here are annotated with their viability at 10 µM.
Kindly report the value followed by its unit.

Solved cases below.
# Compound, viability at 10 µM
data = [
    ("CC(C)(C)NC1CCN(c2cc(Nc3ccc(Cl)cc3)nc3ccccc23)CC1 [Compound 1-6, hydrochloride salt]", "12.1%"),
    ("Cc1cc(Nc2cc(N3CCC(NC(C)(C)C)CC3)c3ccccc3n2)ccc1Nc1nccc(-c2cccnc2)n1 [Compound 4-3, hydrochloride salt]", "0.2%"),
    ("Cc1cc(Nc2cc(N3CCC(NC(C)(C)C)CC3)c3ccccc3n2)ccc1Nc1ncccn1 [Compound 3-5, hydrochloride salt]", "8.7%"),
]

Alright, here's another compound for you.
Value of measured viability at 10 µM for the entry CC(C)(C)NC1CCN(c2cc(NCc3ccc(Cl)cc3)nc3ccccc23)CC1 [Compound 2-3, hydrochloride salt] : 0.3%

###

Measured EC50, listed per entry for reference.
Tested on: A375 cell line
Assay: CellTiter-Glo growth inhibition assay, A375
Type: cell-based
Settings: Homo sapiens, A-375; A375, malignant melanoma, 72 h
Method: All cell lines were maintained in medium containing 1% penicillin-streptomycin (Dutscher, P06-07100) and 10% Fetal Bovine Serum (Gibco, W3387L) except 20% for KG-1 cell line and PBMC, and cultured at 37° C. with 5% CO2. […] Cell viability was measured using the CellTiter-Glo® luminescent cell viability assay as described by the manufacturer (Promega, Ref G7571) using an Infinite F200Pro luminometer (Tecan). […]
Where a name gives a salt, the structure may show the parent alone.
Use nM as the unit, but write only the number.

EC50 reported for this compound Cc1cc(Nc2cc(N3CCC(NC(C)(C)C)CC3)c3ccccc3n2)ccc1Nc1nccc(-c2cccnc2)n1 [Compound 4-3, hydrochloride salt] : 1400

Lab book: EC50 of CC(C)(C)NC1CCN(c2cc(NCc3ccc(Cl)cc3)nc3ccccc23)CC1 [Compound 2-3, hydrochloride salt] noted as 1000

###

System: Hep3B-Luc cell line
Test: CellTiter-Glo growth inhibition assay, Hep3B-Luc
Type: cell-based
Conditions: Homo sapiens, Hep 3B-Luc, 72 h
Structures can show the parent of a compound that is named as a salt.
Measured Attribute: pEC50
Expect pEC50 as a plain number equal to -log10 of the molar concentration.

Lookup result for CC(C)(C)NC1CCN(c2cc(NCc3ccc(Cl)cc3)nc3ccccc23)CC1 [Compound 2-3, hydrochloride salt] ; measured pEC50: 5.96

###

Tested on: LI1646 HCC patient derived cells
Experiment: CellTiter-Glo growth inhibition, HCC patient-derived cells LI1646
Assay type: cell-based, human
Conditions: LI1646, 72 hours
Measured Attribute: EC50 (µM)
Please give a number only; it is taken to be in µM.

Looking up N.N.[Cl][Pt][Cl] [Cisplatin] , I found its EC50 recorded as 10
